- target entity: β1 receptor (Canis lupus familiaris)
- Construct: plasmic membranes of hearts of dogs (β1 receptor); from tissue; host or cells: dog heart plasma membranes
- Sequence (P79148 whole entry): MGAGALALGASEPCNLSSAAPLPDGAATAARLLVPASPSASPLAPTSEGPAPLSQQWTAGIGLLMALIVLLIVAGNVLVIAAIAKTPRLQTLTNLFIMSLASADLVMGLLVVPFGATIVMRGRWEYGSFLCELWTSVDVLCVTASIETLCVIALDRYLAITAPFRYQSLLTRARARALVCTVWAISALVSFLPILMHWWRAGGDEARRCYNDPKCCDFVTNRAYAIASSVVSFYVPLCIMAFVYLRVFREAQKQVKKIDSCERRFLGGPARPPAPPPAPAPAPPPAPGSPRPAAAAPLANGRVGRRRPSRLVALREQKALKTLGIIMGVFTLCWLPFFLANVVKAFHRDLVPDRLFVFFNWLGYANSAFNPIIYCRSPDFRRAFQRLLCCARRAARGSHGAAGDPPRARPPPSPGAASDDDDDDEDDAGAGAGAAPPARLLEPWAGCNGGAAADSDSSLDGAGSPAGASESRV
- assay notes: Displacement of 3H dihydroalprenolol, plasmic membranes of hearts of dogs
- Format: binding, dog
- settings: dog heart membranes; 3H dihydroalprenolol 4×10^-9 M
readout type: EC50 (nM)

INSERT INTO measurements (compound, measured_value) VALUES
  ('Cc1ccccc1OCC(O)CNC(C)(C)Cc1c[nH]c2ccccc12 (stereo not drawn)', 16),
  ('Cc1ccccc1OC[C@H](O)CN[C@H](CO)Cc1c[nH]c2ccccc12', 2050),
  ('Cc1ccccc1OC[C@@H](O)CN[C@H](CO)Cc1c[nH]c2ccccc12', 51);
